The measurements presented in this section are drawn from patent US20240174690A1.

# SYSTEM TESTED: KRAS (G12D)::SOS1 (Homo sapiens (Human), UniProt P01116, G12D)
# Sequence (P01116 other isoform, or with tags, fused parts or gaps G12D): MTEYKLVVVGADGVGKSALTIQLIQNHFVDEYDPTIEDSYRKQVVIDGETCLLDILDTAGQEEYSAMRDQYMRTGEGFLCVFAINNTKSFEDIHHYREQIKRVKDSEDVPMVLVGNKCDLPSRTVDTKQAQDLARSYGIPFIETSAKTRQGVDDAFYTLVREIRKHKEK
# ASSAY OVERVIEW: KRAS::SOS1 AlphaScreen binding assay, KRAS G12D
pIC50: −log10 of the molar value.

{"COMPOUND": "C[C@H](Oc1cc(C2CCOCC2)nc(-c2noc3c2CCC[C@@]32CCCc3sc(N)c(C#N)c32)n1)[C@@H]1CCCN1C", "pIC50": 8.52}
{"COMPOUND": "C[C@H](Oc1cc([C@@H]2CCOC2)nc(-c2noc3c2CCC[C@@]32CCCc3sc(N)c(C#N)c32)n1)[C@@H]1CCCN1C", "pIC50": 9.00}
{"COMPOUND": "C[C@@H]1CN(c2nc(-c3noc4c3CCC[C@@]43CCCc4sc(N)c(C#N)c43)nc(O[C@@H](C)[C@@H]3C[C@@H](F)CN3C)c2F)CC2(CC2)N1", "pIC50": 8.70}
{"COMPOUND": "C[C@H](O)Cn1ccc(-c2cc(O[C@@H](C)[C@@H]3CCCN3C)nc(-c3onc4c3CCC[C@@]43CCCc4sc(N)c(C#N)c43)n2)n1", "pIC50": 8.52}
{"COMPOUND": "C[C@H](Oc1cc(-n2cncn2)nc(-c2noc3c2CCC[C@@]32CCCc3sc(N)c(C#N)c32)n1)[C@@H]1CCCN1C", "pIC50": 8.70}
{"COMPOUND": "C[C@H](Oc1cc(C2=CCNCC2)nc(-c2noc3c2CCC[C@@]32CCCc3sc(N)c(C#N)c32)n1)[C@@H]1CCCN1C", "pIC50": 9.00}
{"COMPOUND": "C[C@H](Oc1cc(N2CC[C@@H](O)C2)nc(-c2noc3c2CCC[C@@]32CCCc3sc(N)c(C#N)c32)n1)[C@@H]1CCCN1C", "pIC50": 9.00}
{"COMPOUND": "C[C@H](Oc1cc(-c2ccn(C[C@@H](C)O)n2)nc(-c2noc3c2CCC[C@@]32CCCc3sc(N)c(C#N)c32)n1)[C@@H]1CCCN1C", "pIC50": 8.70}
{"COMPOUND": "C[C@H](Oc1cc(-n2ccc(C(N)=O)n2)nc(-c2noc3c2CCC[C@@]32CCCc3sc(N)c(C#N)c32)n1)[C@@H]1CCCN1C", "pIC50": 8.70}
{"COMPOUND": "C[C@H](Oc1cc(N2CCN3CCC3C2)nc(-c2onc3c2CCC[C@@]32CCCc3sc(N)c(C#N)c32)n1)[C@@H]1CCCN1C (stereo partly drawn)", "pIC50": 8.70}
{"COMPOUND": "C[C@H](Oc1cc(-c2cn(C3COC3)nn2)nc(-c2noc3c2CCC[C@@]32CCCc3sc(N)c(C#N)c32)n1)[C@@H]1CCCN1C", "pIC50": 8.22}
{"COMPOUND": "CO[C@H]1CCN(C)[C@@H]1[C@H](C)Oc1cc(-n2ccc(C(=O)N[C@@H]3CCOC3)n2)nc(-c2onc3c2CCC[C@@]32CCCc3sc(N)c(C#N)c32)n1", "pIC50": 9.00}
{"COMPOUND": "CO[C@H]1CCN(C)[C@@H]1[C@H](C)Oc1cc(-n2ccc(C(=O)N[C@@H]3CCOC3)n2)nc(-c2noc3c2CCC[C@@]32CCCc3sc(N)c(C#N)c32)n1", "pIC50": 9.00}
{"COMPOUND": "C[C@H](Oc1cc(-c2cnn(C)n2)nc(-c2noc3c2CCC[C@@]32CCCc3sc(N)c(C#N)c32)n1)[C@@H]1C[C@@H](F)CN1C", "pIC50": 7.66}
{"COMPOUND": "C[C@H](Oc1cc(-c2cncnc2)nc(-c2noc3c2CCC[C@@]32CCCc3sc(N)c(C#N)c32)n1)[C@@H]1CCCN1C", "pIC50": 8.22}
